Recorded measurements of residual activity, one per entry
Subject of test: RPS6KB1 (human) (UniProt P23443)
Sequence (P23443 whole entry, looked up): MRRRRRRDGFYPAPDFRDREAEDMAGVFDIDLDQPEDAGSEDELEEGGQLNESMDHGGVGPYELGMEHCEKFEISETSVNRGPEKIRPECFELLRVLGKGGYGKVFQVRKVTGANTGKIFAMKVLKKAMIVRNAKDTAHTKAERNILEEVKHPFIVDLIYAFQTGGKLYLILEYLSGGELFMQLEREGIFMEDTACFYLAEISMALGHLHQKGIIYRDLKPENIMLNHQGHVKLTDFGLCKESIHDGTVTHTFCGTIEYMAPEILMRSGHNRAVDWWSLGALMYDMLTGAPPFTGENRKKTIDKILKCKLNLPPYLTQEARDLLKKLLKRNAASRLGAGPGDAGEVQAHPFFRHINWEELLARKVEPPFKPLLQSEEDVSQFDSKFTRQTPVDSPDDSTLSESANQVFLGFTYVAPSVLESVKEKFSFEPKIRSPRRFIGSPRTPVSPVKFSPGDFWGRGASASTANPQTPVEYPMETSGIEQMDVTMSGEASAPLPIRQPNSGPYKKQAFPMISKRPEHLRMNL
Experiment notes: radiometric filter-binding kinase assay, Kinase HotSpot
Condition parameters: compound 0.5 µM; ATP 10 µM
Expressed in %, but write only the number.

Examples with answers:
{"Compound": "O=C1Nc2ccccc2/C1=C1/Nc2ccccc2/C1=N\\OCCC(O)CO (stereo not drawn)", "Subject of test": "RPS6KB1 (human) (UniProt P23443)", "Unit name": "%", "residual activity": 47.8}
{"Compound": "Cn1cnc2cc3c(Nc4cccc(Br)c4)ncnc3cc21", "Subject of test": "RPS6KB1 (human) (UniProt P23443)", "Unit name": "%", "residual activity": 100}

Prompt: Fill in: residual activity of `Oc1ccc(Nc2nc(-c3ccc(Cl)cc3)cs2)cc1` is ___
Completion: 104

Prompt: Fill in: residual activity of `CC(=O)O/N=C1\C(=C2\C(=O)Nc3cc(Br)ccc32)Nc2ccccc21` is ___
Completion: 95.4

Prompt: Fill in: residual activity of `CC(C)[C@H](CO)Nc1nc(Nc2cc(N)cc(Cl)c2)c2ncn(C(C)C)c2n1` is ___
Completion: 95.5

Prompt: Fill in: residual activity of `COc1cc2ncc(-c3ccccc3)nc2cc1OC` is ___
Completion: 89

Prompt: Fill in: residual activity of `CN([C@@H](Cc1ccc(OS(=O)(=O)c2cccc3cnccc23)cc1)C(=O)N1CCN(c2ccccc2)CC1)S(=O)(=O)c1cccc2cnccc12` is ___
Completion: 101

====

Subject of test: ITK (human)
Experiment notes: radiometric filter-binding kinase assay, Kinase HotSpot
Condition parameters: compound 0.5 µM; ATP 10 µM
Readout: residual activity (%)
Expressed in %, but write only the number.

Examples with answers:
{"Compound": "O=C1Nc2ccccc2/C1=C1/Nc2ccccc2/C1=N\\OCCC(O)CO (stereo unspecified)", "Subject of test": "ITK (human)", "residual activity [%]": 34.8}
{"Compound": "O=C1Nc2ccccc2/C1=C1\\Nc2ccccc2\\C1=N/O", "Subject of test": "ITK (human)", "residual activity [%]": 53}
{"Compound": "COc1cc2ncc(-c3ccccc3)nc2cc1OC", "Subject of test": "ITK (human)", "residual activity [%]": 97.8}
{"Compound": "CN(C)C[C@H]1CCn2c(c(C3=C(c4cn(C)c5ccccc45)C(=O)NC3=O)c3ccccc32)C1", "Subject of test": "ITK (human)", "residual activity [%]": 94.9}
{"Compound": "Cn1nc2c3c(cccc31)C(=O)c1ccccc1-2", "Subject of test": "ITK (human)", "residual activity [%]": 88.3}

Shifting focus to the compound that follows.
Prompt: Form entry - test system: ITK (human); read-out: residual activity; compound: `CC(=O)O/N=C1\C(=C2\C(=O)Nc3cc(Br)ccc32)Nc2ccccc21`
Completion: 76.8

====

Subject of test: SRPK1 (human)
Experiment notes: radiometric filter-binding kinase assay, Kinase HotSpot
Condition parameters: compound 0.5 µM; ATP 10 µM
Readout: residual activity (%)
Expressed in %, but write only the number.

Examples with answers:
{"Given smiles": "COc1cc2ncc(-c3ccccc3)nc2cc1OC", "Observed result": 105}
{"Given smiles": "O=C1Nc2ccccc2/C1=C1\\Nc2ccccc2\\C1=N/O", "Observed result": 89.3}
{"Given smiles": "O=C1Cc2c([nH]c3ccc(Br)cc23)-c2ccccc2N1", "Observed result": 99.6}

Prompt: Form entry - test system: SRPK1 (human); read-out: residual activity; compound: `COc1cc2ncnc(N3CCN(C(=O)Nc4ccc(Oc5ccccc5)cc4)CC3)c2cc1OC`
Completion: 97.5

Prompt: Form entry - test system: SRPK1 (human); read-out: residual activity; compound: `CCN(CC)CCCCN1c2ccccc2Oc2ccc(Cl)cc21`
Completion: 97.2

Prompt: Form entry - test system: SRPK1 (human); read-out: residual activity; compound: `COc1ccc(OC)c2c(=S)c3ccccc3[nH]c12`
Completion: 99.9

Prompt: Form entry - test system: SRPK1 (human); read-out: residual activity; compound: `Nc1nnc2[nH]c3ccccc3nc1-2`
Completion: 101
